Measured viscosity, listed per entry for reference.
# runDescription: φn = volume fraction of the nth substance listed
# conditionSet: 303.15 K; 101 kPa; Liquid; φ2 = 0

{"molecule": "Cc1ccccc1[N+](=O)[O-] [2-nitrotoluene] + CC(=O)c1ccccc1", "viscosity / mPa·s": 1.911}
{"molecule": "Cc1ccc(Cl)cc1 [4-chlorotoluene] + CC(=O)c1ccccc1", "viscosity / mPa·s": 0.9}
{"molecule": "Cc1cccc([N+](=O)[O-])c1 [3-nitrotoluene] + CC(=O)c1ccccc1", "viscosity / mPa·s": 1.775}
{"molecule": "Cc1ccccc1Cl [2-chlorotoluene] + CC(=O)c1ccccc1", "viscosity / mPa·s": 0.887}
{"molecule": "Cc1cccc(Cl)c1 [3-chlorotoluene] + CC(=O)c1ccccc1", "viscosity / mPa·s": 0.782}

###

# runDescription: φn = volume fraction of the nth substance listed
# conditionSet: 303.15 K; 101 kPa; Liquid; φ1 = 1
Measured speed of sound, listed per entry for reference.

{"compound": "CC(=O)c1ccccc1 [acetophenone] + Cc1ccccc1[N+](=O)[O-]", "units": "m/s", "speed of sound": 1460}
{"compound": "CC(=O)c1ccccc1 [acetophenone] + Cc1ccc(Cl)cc1", "units": "m/s", "speed of sound": 1460}
{"compound": "CC(=O)c1ccccc1 [acetophenone] + Cc1cccc(Cl)c1", "units": "m/s", "speed of sound": 1460}
{"compound": "CC(=O)c1ccccc1 [acetophenone] + Cc1ccccc1Cl", "units": "m/s", "speed of sound": 1460}
{"compound": "CC(=O)c1ccccc1 [acetophenone] + Cc1cccc([N+](=O)[O-])c1", "units": "m/s", "speed of sound": 1466}

###

# conditionSet: 303.15 K; 101.33 kPa; Liquid; Pycnometric method

{"compound": "Cc1cccc([N+](=O)[O-])c1", "mass density, kg/m3": 1147.62}
{"compound": "CC(=O)c1ccccc1", "mass density, kg/m3": 1019.43}
{"compound": "Cc1ccccc1[N+](=O)[O-]", "mass density, kg/m3": 1153.26}
{"compound": "Cc1ccccc1Cl", "mass density, kg/m3": 1072.77}
{"compound": "Cc1ccc(Cl)cc1", "mass density, kg/m3": 1060.54}
{"compound": "Cc1cccc(Cl)c1", "mass density, kg/m3": 1065.22}

###

Measured viscosity, listed per entry for reference.
# conditionSet: 303.15 K; 101 kPa; Liquid
observationType: viscosity (mPa·s)

{"compound": "Cc1ccccc1[N+](=O)[O-] [2-nitrotoluene]", "observationType": "viscosity", "result": 1.911}
{"compound": "CC(=O)c1ccccc1 [acetophenone]", "observationType": "viscosity", "result": 1.511}
{"compound": "Cc1cccc(Cl)c1 [3-chlorotoluene]", "observationType": "viscosity", "result": 0.782}
{"compound": "Cc1cccc([N+](=O)[O-])c1 [3-nitrotoluene]", "observationType": "viscosity", "result": 1.775}
{"compound": "Cc1ccc(Cl)cc1 [4-chlorotoluene]", "observationType": "viscosity", "result": 0.9}
{"compound": "Cc1ccccc1Cl [2-chlorotoluene]", "observationType": "viscosity", "result": 0.887}

Provenance of the data: the NIST ThermoML archive (doi:10.1021/je050413l)
